All figures here come from the supplement of paper PMC10567573.

B1: CAMK2D (parent)
chain: IVRLHDSISEEGFHYLVFDLVTGG

# Variants of: B1
# ASSAY METHOD TEXT: protein stability index of a GFP-peptide fusion (GPS, HEK-293T) (PSI 1-6); higher = more stable;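 also: lentivirally expressed fusions sorted by FACS into six bins by GFP to DsRed ratio, PSI derived from sequencing read proportions per bin multiplied by bin number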
# ASSAY CONDITIONS: c terminus: a fixed tail appended
Classification by protein stability index follows these ranges: lower segment (below 2), middle segment (2 to below 3), upper segment (3 or more)

Query :: Band for the recorded protein stability index of `L16H` ?
Result :: lower segment

Query :: Band for the recorded protein stability index of `Y15E` ?
Result :: lower segment

Query :: Band for the recorded protein stability index of `V2E` ?
Result :: middle segment

Query :: Band for the recorded protein stability index of `V2I` ?
Result :: upper segment

Query :: Band for the recorded protein stability index of `D19V` ?
Result :: middle segment

Query :: Band for the recorded protein stability index of `S9E` ?
Result :: upper segment

Query :: Band for the recorded protein stability index of `V17I` ?
Result :: middle segment

Query :: Band for the recorded protein stability index of `G23H` ?
Result :: middle segment

Query :: Band for the recorded protein stability index of `S9M` ?
Result :: upper segment

Query :: Band for the recorded protein stability index of `L4H` ?
Result :: middle segment

Query :: Band for the recorded protein stability index of `D6M` ?
Result :: middle segment

Query :: Band for the recorded protein stability index of `E11A` ?
Result :: middle segment

Query :: Band for the recorded protein stability index of `V17Y` ?
Result :: upper segment

Query :: Band for the recorded protein stability index of `R3V` ?
Result :: middle segment

Query :: Band for the recorded protein stability index of `L16E` ?
Result :: lower segment

Query :: Band for the recorded protein stability index of `I1P` ?
Result :: lower segment

Query :: Band for the recorded protein stability index of `G24W` ?
Result :: middle segment

Query :: Band for the recorded protein stability index of `H5C` ?
Result :: upper segment

Query :: Band for the recorded protein stability index of `H5P` ?
Result :: upper segment

Query :: Band for the recorded protein stability index of `F13W` ?
Result :: middle segment

Query :: Band for the recorded protein stability index of `R3Y` ?
Result :: middle segment

Query :: Band for the recorded protein stability index of `F13M` ?
Result :: middle segment

Query :: Band for the recorded protein stability index of `G24V` ?
Result :: upper segment

Query :: Band for the recorded protein stability index of `D6C` ?
Result :: middle segment

Query :: Band for the recorded protein stability index of `F13D` ?
Result :: lower segment

Query :: Band for the recorded protein stability index of `H14Y` ?
Result :: middle segment

Query :: Band for the recorded protein stability index of `D19Q` ?
Result :: middle segment

Query :: Band for the recorded protein stability index of `G12A` ?
Result :: middle segment

Query :: Band for the recorded protein stability index of `V21Q` ?
Result :: middle segment

Query :: Band for the recorded protein stability index of `F18C` ?
Result :: lower segment

Query :: Band for the recorded protein stability index of `E11R` ?
Result :: upper segment

Query :: Band for the recorded protein stability index of `E11Q` ?
Result :: middle segment
